B1: DLC1 (parent)
chain: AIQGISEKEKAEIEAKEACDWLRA

# Variants of: B1
# PROTOCOL DESCRIPTION: protein stability index of a GFP-peptide fusion (GPS, HEK-293T) (PSI 1-6); higher = more stable;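 also: lentivirally expressed fusions sorted by FACS into six bins by GFP to DsRed ratio, PSI derived from sequencing read proportions per bin multiplied by bin number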
# CONDITION NOTES: c terminus: a fixed tail appended
REPORTED ENDPOINT: protein stability index
Give bare numbers.

Some entries whose results are on file:
1) S6K    3.96
2) L22H    5

Provide reported protein stability index for each item, in the same order as listed.
1. A18T
2. K16H
3. I13P
4. A24G
5. A15M
6. D20G

Result:
4.35
4.32
5.13
4.78
4.24
3.56

Would you mind giving protein stability index for every variant in the list below?
1. A18P
2. E17V
3. R23D

Result:
1: 4.88; 2: 3.65; 3: 5.42
